Sourced from PubChem BioAssay AID504766

- MEASURED_TARGET: Nuclear receptor subfamily 0 group B member 1 (Homo sapiens) (UniProt P51843)
- Sequence (P51843 207-470 limits assumed): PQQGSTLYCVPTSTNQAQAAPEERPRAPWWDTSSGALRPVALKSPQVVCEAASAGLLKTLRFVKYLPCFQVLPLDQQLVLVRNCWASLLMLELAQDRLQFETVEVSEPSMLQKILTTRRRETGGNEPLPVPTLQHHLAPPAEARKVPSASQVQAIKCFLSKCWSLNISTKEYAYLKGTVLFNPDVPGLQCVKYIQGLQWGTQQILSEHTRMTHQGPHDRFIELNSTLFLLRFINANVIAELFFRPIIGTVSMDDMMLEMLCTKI
- TEST_DESCRIPTION: DAX1 (NR0B1) inhibitors, primary screen, cell-based, HEK293, Gal4-DAX1, luciferase luminescence (AID 504766);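 further: 0% = DAX1-transfected cells with DMSO and 100% = empty-vector control cells with DMSO; inhibition shows as a rise in luminescence from relieved DAX1 repression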
- CONDITION_PARAMETERS: HEK293 Gal4-DAX1 luciferase reporter, at 6.75 µM, active compounds read high
Screen size: about 340,000 compounds; about 3,400 (1%) were called active. The list comes from a sample in which actives are over-represented; it also holds close analogues and randomly drawn compounds.

| MOLECULE | inhibition [%] |
| --- | --- |
| COc1ccc(NC(=O)C(Br)C(C)C)cc1 (stereo not given) | 1.41 |
| Cn1nc(N)c2ncc(C(Cl)(Cl)Cl)nc21 | 0.87 |
| C[C@H]1CN([C@@H](C)CO)C(=O)CCCn2cc(nn2)CO[C@@H]1CN(C)S(=O)(=O)c1ccccc1C#N | 0.36 |
| CC(C)CC1C(=O)N(Cc2cn(Cc3ccco3)nn2)CCS(=O)(=O)N1Cc1ccc(-c2ccc(Cl)c(Cl)c2)cc1 (stereo not given) | -1.34 |
| Cc1cccc(NC(=O)C(C)SCc2ccccc2)c1 (stereo not given) | -1.2 |
| CCCSc1nc(NCc2ccco2)c2c3c(sc2n1)COC(C)(CC)C3 (stereo not given) | 1.15 |
| CCN(CC(=O)Nc1ccc(NC(C)=O)cc1)C(=O)C1CC(=O)N(c2ccc3c(c2)OCCO3)C1 (stereo not given) | 0.46 |
| COc1ccc(CN2C(=O)C(CC(=O)NCCN3CCOCC3)CC(C(=O)N(C(C)C)C(C)C)=C2C)cc1 (stereo not given) | -0.44 |
| CN1CCc2c(sc3c2c(NCc2ccco2)nc2nnnn23)C1 | 5.18 |
| CCSc1nc2sc3c(c2c(=O)n1-c1ccc(C)cc1)CCN(C)C3 | 0.31 |
